Hello, the source for this data is the Human Domainome abundance scans (Beltran et al. 2025), in case you need it.

B1: CD2-associated protein, residues 109 to 169; numbered along this chain, Q9Y5K6 (parent)
chain: KKRQCKVLFEYIPQNEDELELKVGDIIDINEEVEEGWWSGTLNNKLGLFPSNFVKELEVTD

Variants of: B1
Test: abundance fitness (aPCA) (normalised: wild type 0, dead -1); higher = more abundant; growth selection in yeast, the domain comes from the species named
Settings: Homo sapiens
measured-parameter: abundance fitness
I'd appreciate a reply containing only the number, no unit.

L46F; 0.092

Look at this variant and give its reported abundance fitness. `K45Y`
-0.273

Look at this variant and give its reported abundance fitness. `E32G`
-0.188

Look at this variant and give its reported abundance fitness. `I27P`
-0.61

Look at this variant and give its reported abundance fitness. `V33R`
0.108

Look at this variant and give its reported abundance fitness. `I29M`
0.038

Look at this variant and give its reported abundance fitness. `I29T`
-0.543

Look at this variant and give its reported abundance fitness. `V33G`
-0.483

Look at this variant and give its reported abundance fitness. `N43L`
-0.489

Look at this variant and give its reported abundance fitness. `E56K`
0.16

Look at this variant and give its reported abundance fitness. `L46A`
0.031

Look at this variant and give its reported abundance fitness. `P50S`
-0.465

Look at this variant and give its reported abundance fitness. `L46Y`
0.011

Look at this variant and give its reported abundance fitness. `E35H`
-0.318

Look at this variant and give its reported abundance fitness. `I29N`
-0.431

Look at this variant and give its reported abundance fitness. `G36M`
-0.201

Look at this variant and give its reported abundance fitness. `E31G`
-0.187

Look at this variant and give its reported abundance fitness. `F53T`
-0.255
